# Test System: T1, neuropilin-1 (NRP1) on HEK293 cells overexpressing NRP1 (UniProt O14786 22-923, limits assumed)
# T1 construct: whole, on cells
# Procedure Details: flow cytometry, HEK293-NRP1 vs HEK293
Reported Metric: 100 nM FACS (MFI Ratio)
Answer using only a numeral; do not append any unit.

For reference, reported 100 nM FACS (MFI Ratio) for NRP1-71 (VHH) VHH: EVQLVESGGGLVQPGGSLRLSCAASGRTFSNAAMGWFRQAPGKERELVARITPGGNTNYADSVKGRFTISADNSKNTAYLQMNSLKPEDTAVYYCAARRIVNVEGAYRDWGQGTLVTVSS stands at 0.4

For reference, reported 100 nM FACS (MFI Ratio) for NRP1-85 (VHH) VHH: EVQLVESGGGLVQPGGSLRLSCAASGSRFSGRFNILNMGWFRQAPGKERESVAAINWSGGTSTYYADSVKGRFTISADNSKNTAYLQMNSLKPEDTAVYYCAAGSNIGGSRWRYDWGQGTLVTVSS stands at 5

For reference, reported 100 nM FACS (MFI Ratio) for NRP1-18 (VHH) VHH: EVQLVESGGGLVQPGGSLRLSCAASGFRFSSYGMGWFRQAPGKEREFVAFISGNPSRTYYADSVKGRFTISADNSKNTAYLQMNSLKPEDTAVYYCAARPYQKYNWASASYNWGQGTLVTVSS stands at 20.8

For reference, reported 100 nM FACS (MFI Ratio) for NRP1-50 (VHH) VHH: EVQLVESGGGLVQPGGSLRLSCAASGRTFNRYPMGWFRQAPGKEREWVAAISTSGGSTYYADSVKGRFTISADNSKNTAYLQMNSLKPEDTAVYYCAIHTSREIWGQGTLVTVSS stands at 5.9

For reference, reported 100 nM FACS (MFI Ratio) for NRP1-125 (antibody, IgG2, V domains shown) VH: EVQLLESGGGLVQPGGSLRLSCAASGFTFSGYDMQWVRQAPGKGLEWVSSISGYGSTTYYADSVKGRFTISRDNSKNTLYLQMNSLRAEDTAVYYCAKGRRIFDYWGQGTLVTVSS VL: DIQMTQSPSSLSASVGDRVTITCRASQTIERRLNWYQQKPGKAPKLLIYRKSNRPSGVPSRFSGSGSGTDFTLTISSLQPEDFATYYCQQNNNWPTTFGQGTKVEIK stands at 0.6

For reference, reported 100 nM FACS (MFI Ratio) for NRP1-239 (antibody, IgG2, V domains shown) VH: EVQLLESGGGLVQPGGSLRLSCAASGFPFSNYTMGWVRQAPGKGLEWVSAISASGGSPYYADSVNGRFTISRDNSKNTLYLQMNSLRAEDTAVYYCARVGPGRSIAARQGFKRRNNWFDPWGQGTLVTVSS VL: DIQMTQSPSSLSTSVGDRVTITCRASQNIGSHLNWYQQKPGKAPKLLIYATSSLRSGVPSRFSGSGSGTDFTLTISSLQPEDFATYYCQQSYRIPLTFGGGTKVEIK stands at 0.2

For reference, reported 100 nM FACS (MFI Ratio) for NRP1-284 (antibody, IgG2, V domains shown) VH: EVQLLESGGGLVQPGGSLRLSCAASGFTFSSSAMNWVRQAPGKGLEWVSAITSSGGSTYYADSVKGRFTISRDNSKNTLYLQMNSLRAEDTAVYYCARVTKMSPRSVGRRLRKGDGLDVWGQGTLVTVSS VL: DIQMTQSPSSLSASVGDRVTITCRASQSISRSLSWYQQKPGKAPKLLIYSASRLQSGVPSRFSGSGSGTDFTLTISSLQPEDFATYYCLQSYSSPRTFGGGTKVEIK stands at 1

Where do these numbers come from? They come from patent US20230265198A1.
